// provenance: the supplement of paper PMC10065799

phosphorylation enrichment: recorded values
Target: EPHB2 (UniProt P29323)
Sequence (P29323 whole entry, looked up): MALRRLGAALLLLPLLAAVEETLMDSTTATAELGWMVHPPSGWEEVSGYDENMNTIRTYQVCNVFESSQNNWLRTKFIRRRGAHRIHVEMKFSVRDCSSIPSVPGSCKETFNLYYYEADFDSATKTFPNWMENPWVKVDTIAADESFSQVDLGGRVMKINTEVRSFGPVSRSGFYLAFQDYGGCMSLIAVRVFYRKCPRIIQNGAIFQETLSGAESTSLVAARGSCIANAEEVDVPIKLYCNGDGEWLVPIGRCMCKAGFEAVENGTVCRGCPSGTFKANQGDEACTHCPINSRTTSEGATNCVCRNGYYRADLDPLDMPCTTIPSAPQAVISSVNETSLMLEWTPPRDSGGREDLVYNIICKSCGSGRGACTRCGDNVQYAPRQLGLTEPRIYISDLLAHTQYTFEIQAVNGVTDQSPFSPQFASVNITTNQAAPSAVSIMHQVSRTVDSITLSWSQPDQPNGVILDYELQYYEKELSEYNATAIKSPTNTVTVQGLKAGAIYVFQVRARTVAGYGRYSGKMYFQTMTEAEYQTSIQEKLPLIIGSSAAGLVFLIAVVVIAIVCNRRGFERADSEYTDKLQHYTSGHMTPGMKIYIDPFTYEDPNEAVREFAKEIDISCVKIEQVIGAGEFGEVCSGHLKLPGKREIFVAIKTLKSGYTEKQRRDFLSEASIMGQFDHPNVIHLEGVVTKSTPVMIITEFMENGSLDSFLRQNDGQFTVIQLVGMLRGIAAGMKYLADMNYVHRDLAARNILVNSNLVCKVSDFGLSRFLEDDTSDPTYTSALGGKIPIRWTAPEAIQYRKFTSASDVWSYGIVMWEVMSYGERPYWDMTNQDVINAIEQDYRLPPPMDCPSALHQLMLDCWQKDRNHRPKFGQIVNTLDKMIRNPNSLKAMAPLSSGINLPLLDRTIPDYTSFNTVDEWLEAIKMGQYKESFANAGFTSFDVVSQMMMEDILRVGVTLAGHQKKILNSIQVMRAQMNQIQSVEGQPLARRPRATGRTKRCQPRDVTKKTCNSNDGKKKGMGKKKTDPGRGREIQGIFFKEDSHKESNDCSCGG
Test: phosphorylation enrichment, bacterial display (enrichment ratio); higher = better substrate or ligand; peptides without Tyr show the background;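 also: 11-residue human phosphosite peptides and single-mutation variants displayed on the E. coli surface, counted by deep sequencing, each peptide's frequency after selection divided by its frequency in the unselected input library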;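 also: frequency after pTyr selection over input frequency; kinase dosed for 20-30% of maximal phosphorylation in three min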

sequence chain	assay target	phosphorylation enrichment
DIPIRYSIMGV [CDH4_Y205_T208M]	EPHB2 (UniProt P29323)	0.603
TMKSRYMELYD [BBS2_Y644]	EPHB2 (UniProt P29323)	0.608
DTDSSYCIPTA [GAB1_Y373]	EPHB2 (UniProt P29323)	0.598

* * *

Tested on: Fer (mouse)
Assay: phosphorylation enrichment, bacterial display (enrichment ratio); higher = better substrate or ligand; peptides without Tyr show the background
phosphorylation enrichment: recorded values

sequence chain	phosphorylation enrichment
LAVNPYGPPDP	0.44
RHPREYQDLLN [DES_Y388_L385P]	0.327
FSEVRYMKEPY [HIPK4_Y170_V171M]	0.437
YSTDYYRVGGH [NTRK2_Y707]	0.44
EMTAEYTCTRK [ACAD9_Y325_A326T]	0.513
KVGRVYLFLQP [ITGA2B_Y360_E355K]	0.492
RNDQVYQPLRD [CD3D_Y149]	0.575
FTFNSYFMHWV [IGHV1-46_Y51_T49N_YF]	1.62
QRVLLYVRRET [GRHL3_Y518]	0.468
VSAPEYGPKLK [TBC1D14_Y46_L41V]	0.452
KDFNKYVAFIE [KDM4B_Y31_YF]	0.434
FSNPAYFVLEG [INPPL1_Y986_N982S_YF]	0.564
FDSPFYQDSLP [TSC1_Y508_R509Q]	2.88
RDMNACIRPSP [MMAA_Y207_Y207C]	0.571
RHSGSYFVTSV [APC_Y2838_L2839F]	0.444
ALARKYHGGGG [HBB_Y146_H144R]	0.444
DVRQEYPGMIL [PLXND1_Y616]	0.394
VDEERYDIEGK [TNNI3_Y112_A116G]	0.561
ADEEFYEIIAA [FEStide_F_2014]	7.22
RQQQDYWLIDV [ANPEP_Y600]	3.21
MFDKEYFSVHN [MET_Y1234_YF]	0.451
